# System: K-562 leukemia
# assayExplanation: NCI tumour cell line growth inhibition, 48 h
parameterMeasured: TGI

Answered cases to consult:
> print(dat)
                                    compound  measurementtarget     result
 1               C[C@]12CCC(=O)O[C@H]1CCCCO2     K-562 leukemia   > 100 µM
 2               NCCCCN(CCCN)/[N+]([O-])=N\O     K-562 leukemia   > 100 µM
 3          COc1ccccc1CCc1cc(OC)c(OC)c(OC)c1     K-562 leukemia   > 100 µM
 4  COc1cc(/C=C/c2cc(/C=C/c3ccc(O)c(OC)c3)n(C(=O)Nc3ccc(F)c(Cl)c3)n2)ccc1O     K-562 leukemia    1.45 µM
 5  O=C(N/N=C/c1ccc(Cl)cc1)c1ccc(C(F)(F)F)nc1Nc1cccc(C(F)(F)F)c1     K-562 leukemia  > 35.9 µM
 6  COc1ccc(Cn2cc3c(c2-c2ccccc2)CC(C)(C)c2cnoc2-3)cc1     K-562 leukemia   > 100 µM
 7  CCCCCCCC/C=C/CCCCCCCC(=O)OC[C@H]1O[C@@H](n2ccc(N)nc2=O)C(F)(F)[C@@H]1O     K-562 leukemia   > 100 µM
 8  CC(=O)[O-].CCN(CC)c1ccc(C=NCCN=Cc2ccc(N(CC)CC)cc2[O-])c([O-])c1.[Mn+3]     K-562 leukemia    61.3 µM
 9       COc1cc2ncnc(Nc3ccc(C)c(O)c3)c2cc1OC     K-562 leukemia    > 25 µM
10  C=C1C(=O)O[C@@H]2/C=C(\C)CC/C=C(/COC(C)=O)C[C@@H](OC(C)=O)[C@@H]12     K-562 leukemia  > 33.8 µM

I am curious: what TGI value has been reported for C=CCCN1CCc2c([nH]c3ccccc23)C1C(=O)O (stereo not given) ?
> 100 µM

====

# Tested on: EKVX NSCLC
# assayExplanation: NCI tumour cell line growth inhibition, 48 h
Documented TGI across a set of compounds

Below: 3 compounds and their reported TGI.
> print(dat)
                                   compound  parametermeasured    result
1                Oc1c(CN2CCOCC2)ccc2cccnc12                TGI   > 10 µM
2  Oc1ccccc1C(Sc1nc2ccccc2s1)Sc1nc2ccccc2s1                TGI   77.9 µM
3          Nc1nc(N)c2ncn(-c3ccc(Cl)cc3)c2n1                TGI  > 100 µM

Given the compound CS/C(N)=N\NC(=O)CCC(=O)Nc1ccccc1C(F)(F)F , what is its reported TGI?
> 100 µM

So what's the measured TGI for this one? O=C1/C(=C/c2ccc([N+](=O)[O-])cc2)C(=O)N(c2ccccc2)C1c1ccccc1 (configuration not stated)
> 10 µM

What value of TGI has been reported for the following compound? COc1cc(/C=C2\C(=O)N(c3ccccc3)C(c3ccccc3)S2(=O)=O)cc(OC)c1OC (configuration not stated)
> 100 µM

What does the data say about its TGI? Entry: CC(=O)/C(C)=N/NC(=O)c1ccccc1O
> 100 µM

Data origin, for the record: PubChem BioAssay (NCI)
